test system: TRPC4 beta (transient receptor potential cation channel C4), mouse; assay: potentiation of DAMGO EC20 TRPC4 response – cell-based, Fluo-4, HEK293 TRPC4beta/mu-opioid, confirmation (AID 2555); settings: DAMGO EC20, Fluo-4 calcium flux, at 10 µM
Active and inactive are the calls of the source.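 How the source made its calls: active means primary screen hit whose calcium fluorescence ratio, in both repeats, exceeds the weak agonist control mean by 3 SD; inactive means the rest.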
Classes used: active, inactive

{"molecule": "COc1ccc(N2CCN(Cc3nc4ccccc4n3C)CC2)cc1", "system.under.test": "TRPC4 beta (transient receptor potential cation channel C4), mouse", "cat": "inactive"}
{"molecule": "Cc1ccccc1NC(=S)NCC(c1cccnc1)N(C)C (stereo not given)", "system.under.test": "TRPC4 beta (transient receptor potential cation channel C4), mouse", "cat": "inactive"}
{"molecule": "NC(=NC1CCCCC1)c1ccc(Cl)cc1", "system.under.test": "TRPC4 beta (transient receptor potential cation channel C4), mouse", "cat": "inactive"}
{"molecule": "CN(C)CCOC(=O)C1(c2ccccc2)CCOCC1", "system.under.test": "TRPC4 beta (transient receptor potential cation channel C4), mouse", "cat": "active"}
{"molecule": "Cc1c(CCOC(=O)c2ccccc2)sc[n+]1CC(=O)c1ccc(Br)cc1", "system.under.test": "TRPC4 beta (transient receptor potential cation channel C4), mouse", "cat": "inactive"}

====

assay: serotonin-gated TRPC4 signal block – cell-based, second counter screen, HEK293 TRPC4/5HT1a, Fluo-4, counter-screen for TRPC4 inhibitor project, confirmation (AID 434978); details: Fluo-4 calcium flux, at 10 µM, serotonin added to trigger calcium flux;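 on Outcome: serotonin given first at submaximal then at maximal dose after compound preincubation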
Activity calls are given as the source filed them.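 Rule for the calls: active = primary screen active whose calcium signal fell more than 3 SD beyond the full-serotonin control mean in both duplicate plates; inactive = the rest.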
Outcome codes: y for active, n for inactive

{"compound": "CCOc1ccccc1NC(=O)CN(c1ccc(OC)cc1)S(=O)(=O)c1c(C)[nH]c(=O)[nH]c1=O", "cat": "n"}
{"compound": "CCOc1cc(CNCc2cccs2)ccc1OCC(=O)NC(C)(C)C", "cat": "n"}
{"compound": "CCN1CCN(c2ccc(S(=O)(=O)N3CCCCC3)cc2NC(=O)CC(C)c2ccccc2)CC1 (stereo not given)", "cat": "n"}
{"compound": "OCC(Cc1ccccc1)NCc1ccccc1C(F)(F)F (stereo not given)", "cat": "n"}
{"compound": "CCCCNC(=O)/C(C#N)=C/c1ccc(F)cc1F", "cat": "n"}
{"compound": "Cc1ccc(C[n+]2cc(-c3ccc(Cl)cc3)n3c2CCC3)cc1", "cat": "y"}
{"compound": "Cc1cc(N2CCOCC2)nc(NCc2ccccc2)n1", "cat": "n"}
{"compound": "COc1cc(/C=C2/SC(=O)NC2=O)ccc1OCc1ccccc1", "cat": "n"}
{"compound": "N#C/C(=N\\Nc1cccc([N+](=O)[O-])c1)C(=O)c1ccc(Br)cc1", "cat": "y"}
{"compound": "Cc1ccc(C)c2[nH]c(=O)c(C(c3nnnn3C3CCCC3)N3CCOCC3)cc12 (stereo not given)", "cat": "n"}

====

system: TRPC4 beta (transient receptor potential cation channel C4), mouse; assay: TRPC4 cation channel opening, retest – cell-based, Fluo4 calcium, HEK293 TRPC4beta/mu-opioid, duplicates, 10 µM, confirmation (AID 2426); conditions: Fluo4 calcium fluorescence, at 10 µM
Activity calls are given as the source filed them.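 How the source made its calls: active means fluorescence ratio normalized to control raised more than 50% in primary screen plus both repeat runs; inactive means the rest.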
Labels: true (1) for active, false (0) for inactive

{"compound": "CC(=O)c1c(C)nn(CC(=O)NC2CCCN(Cc3ccc(CC(C)C)cc3)C2)c1C (stereo unspecified)", "cat": "true (1)"}
{"compound": "COc1cccc(CNC(=O)CCC2CCCN(Cc3cc(Cl)ccc3O)C2)c1 (stereo unspecified)", "cat": "false (0)"}
{"compound": "CN1CCN(Cc2cn[nH]c2-c2ccc(F)cc2F)[C@@H](c2ccccc2)C1", "cat": "false (0)"}
{"compound": "Cc1cc(OCCn2ccnc2)cc(C)c1Cl", "cat": "true (1)"}
{"compound": "CCCCCc1ccc(OCCCC[n+]2ccccc2)c(CCCCC)c1", "cat": "false (0)"}
{"compound": "Cc1ccc(CC(=O)NCC(c2ccco2)N(C)C)cc1C (stereo unspecified)", "cat": "false (0)"}
{"compound": "Cn1c(-c2ccc(F)cc2)cnc1NCc1ccc(F)cc1", "cat": "false (0)"}
{"compound": "Cc1ccc(C)c2[nH]c(=O)c(CN(Cc3nnnn3C3CCCCC3)CC3CCCO3)cc12 (stereo unspecified)", "cat": "false (0)"}
{"compound": "CC12CN3CC(C)(CN(C1)C3c1ccc(Cl)cc1Cl)C2O (stereo unspecified)", "cat": "true (1)"}
{"compound": "FC(F)Oc1ccccc1NC(=S)Nc1cccc(Cl)c1Cl", "cat": "false (0)"}
{"compound": "N=C(N)SCc1cn2ccccc2n1", "cat": "false (0)"}
